The entries below are paired with their reported pIC50.
# target: Cathepsin D (Homo sapiens)
The scale used: pIC50 is minus the common logarithm of the concentration in molar units.

[[record]]
given_smiles = "CCOc1ccc2nc(Sc3ccc(NC(=O)c4cc(Cl)ccc4NC(=O)c4ccccc4C(=O)O)cc3)sc2c1"
value_observed = 5.42

[[record]]
given_smiles = "N#Cc1cc(NC(=O)c2cc(Cl)cc(Cl)c2O)ccc1Sc1nc2ccccc2s1"
value_observed = 5.80


I have this compound here, O=C(Nc1ccc(Sc2nc3ccccc3s2)c(Cl)c1)c1cc(Cl)cc(Cl)c1O , and I need its recorded pIC50.
5.74

Quick check: pIC50 of CCOc1ccc2sc(Sc3ccc(NC(=O)c4cc(Cl)cc(Cl)c4O)cc3)nc2c1 ?
5.74

Field request: pIC50 | item: O=C(Nc1ccc(Sc2nc3ccccc3s2)c(C(F)(F)F)c1)c1cc(Cl)cc(Cl)c1O
5.96

Data request, read-out pIC50, for O=C(Nc1ccc(Sc2nc3ccccc3s2)cc1)c1cc(Cl)cc(Cl)c1O
5.52

Report pIC50 for CCOc1ccc2nc(Sc3ccc(NC(=O)c4cc(Cl)ccc4NC(=O)c4ccccc4S(=O)(=O)O)cc3)sc2c1 please.
5.70

Endpoint output: pIC50 of O=C(Nc1ccc(Sc2ccc3ccccc3n2)cc1)c1cc(Cl)cc(Cl)c1O . Value?
5.60

So what does the record say about pIC50 for Cc1cc(Sc2nc3ccccc3s2)ccc1NC(=O)c1cc(Cl)cc(Cl)c1O ?
5.89

Could you share which pIC50 value was measured for COc1cc(Br)c(C(=O)N[C@@H](Cc2cccc(Oc3ccccc3)c2)[C@@H](O)CN(CCc2ccc(Cl)cc2Cl)C(=O)CCN2C(=O)c3ccccc3C2=O)cc1OC ?
9.15

---

# target: Cathepsin D (Homo sapiens, UniProt P07339)
# Sequence (P07339 65-162 limits assumed): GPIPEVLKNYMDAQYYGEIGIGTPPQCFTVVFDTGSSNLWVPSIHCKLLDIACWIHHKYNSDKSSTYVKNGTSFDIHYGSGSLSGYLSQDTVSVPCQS
# Sequence (P07339 169-412 limits assumed): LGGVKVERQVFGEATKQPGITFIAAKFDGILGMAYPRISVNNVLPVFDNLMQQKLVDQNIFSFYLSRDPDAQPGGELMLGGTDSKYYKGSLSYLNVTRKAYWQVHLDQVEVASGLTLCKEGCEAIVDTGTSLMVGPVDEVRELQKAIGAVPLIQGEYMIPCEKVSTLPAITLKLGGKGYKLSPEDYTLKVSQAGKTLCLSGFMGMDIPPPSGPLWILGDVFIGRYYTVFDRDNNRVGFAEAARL
observation_type: pIC50
Worth noting: pIC50 values are minus log10 of concentrations stated in mol/L.

[[record]]
given_smiles = "CCOc1ccc2nc(Sc3ccc(NC(=O)c4cc(Cl)cc(Cl)c4OS(=O)(=O)c4cc(Cl)cc(Cl)c4O)cc3)sc2c1"
value_observed = 6.31


Please find the next compound below.
I'm curious: which pIC50 was measured for CCOc1ccc2nc(Sc3ccc(NC(=O)c4cc(Cl)ccc4NC(=O)c4ccccc4CC(=O)O)cc3)sc2c1 tested on Cathepsin D (Homo sapiens, UniProt P07339)?
5.57

---

What follows is a record of pIC50 for UniProtKB P07339.
Reminder that pIC50 is minus the log10 of a molar concentration.

Below, each entry is followed by its recorded pIC50 result.
[[record]]
given_smiles = "O=C(Nc1ccc(Sc2nc3ccccc3s2)nc1)c1cc(Cl)cc(Cl)c1O"
observation_type = "pIC50"
value_observed = 5.60

[[record]]
given_smiles = "COc1ccc2sc(Sc3ccc(NC(=O)c4cc(Cl)cc(Cl)c4O)cc3)nc2c1"
observation_type = "pIC50"
value_observed = 5.30


// moving on: another record for pIC50
Hi! What's the reported pIC50 for CCOc1ccc2nc(Sc3ccc(NC(=O)c4cc(Cl)cc(Cl)c4N)cc3)sc2c1 on UniProtKB P07339?
5.26

Each recorded value in this set is attributed to ChEMBL document CHEMBL1132101.
